Test system: NCI-H522
Test: NCI tumour cell line growth inhibition, 48 h
The source made the active and inactive calls. Rule as the data show it: active = GI50 up to about 1.1 µM and inactive = higher.
// classify into active, inactive

Request: Each compound tested received a call. Report the one for C/C(=C/CC[C@](C)(OC1OC(CO)C(O)C(O)C1O)[C@H]1CC[C@]2(C)[C@@H]1CC[C@@H]1[C@@]3(C)CC[C@H](O)C(C)(C)[C@@H]3C[C@H](O)[C@]12CO)CO (some centres undefined) .
Result: inactive

Request: Please indicate how the test categorized CC(=O)C1CC=C(C)CC1 (centres undefined) .
Result: inactive

Request: What call does the record list for O=C1c2cccc3cc([N+](=O)[O-])cc(c23)C(=O)N1NC1=NCCN1 ?
Result: inactive

Request: Status in this test for O=C1C2C(C(=O)N1c1ccccc1)C1(c3ccccc3)CCC2(C(=O)c2ccccc2)O1 (centres undefined) ?
Result: inactive

Request: Name the outcome recorded for COc1cc(OC)c(/C=C\c2cc(/C=C/c3c(OC)cc(OC)cc3OC)c3ccccc3[n+]2C)c(OC)c1 in the assay.
Result: inactive

Request: Which outcome was entered for the compound O=C(O)c1cc(-c2ccc3c(O)ccc(O)c3c2)ccc1O in this test?
Result: inactive

Request: Tell me the assay call for COc1cc2cccc(N)c2cc1OC please.
Result: inactive

Request: // return assay outcome for CCOc1ccc(N/C(Cl)=C(Cl)\C(=C(\Nc2ccc(OCC)cc2)n2nnc3ccccc32)[N+](=O)[O-])cc1
Result: active

Request: // return assay outcome for COc1c(C)c(O)c2c(=O)cc(-c3ccccc3)oc2c1C
Result: inactive

Request: Outcome? C[C@]12CC[C@H]3[C@@H](CC=C4C[C@@H](O)CC[C@@]43C)[C@@H]1C/C(=C\c1ccncc1)[C@@H]2O
Result: inactive

Request: What did this assay record as the result for Cc1ccc([N+]2=NC(c3ccc([N+](=O)[O-])cc3)=NN(c3ccccc3)C2)cc1 ?
Result: inactive

Request: Could you kindly confirm the outcome this assay logged for O=S(=O)(O)c1cccc2cccc(/N=N/c3c(O)ccc4ccccc34)c12 ?
Result: inactive

Request: What outcome does the record of this test show for Nc1nc2ncn(CCO)c2c(=S)[nH]1 ?
Result: inactive

Request: In this assay, the call recorded for O=[N+]([O-])c1ccc(-c2csc3nc(-c4ccccc4)nn23)cc1 was what?
Result: inactive

----------
Tested on: M19-MEL
Assay: NCI tumour cell line growth inhibition, 48 h
Counter-ions that a name gives are not always drawn. Calls of active or inactive are those of the source. No stated cut-off is given here; in the data, active = GI50 up to about 1.1 µM and inactive = higher.
// allowed return values: active, inactive

Request: Short answer needed: outcome of this test for COc1cc([C@@H]2OC(=O)C3C2C(=O)O[C@H]3c2cc(OC)c(OC)c(OC)c2)cc(OC)c1OC (stereo partly specified) ?
Result: inactive

Request: Query: recorded result category for C=C(C)[C@H](O)C(O)CC(C)[C@@H]1CCC23CC12CCC1[C@@]2(C)CCC(OC(C)=O)C(C)(C)C2CC(OC2OC(COC(C)=O)C(O)C(O)C2O)[C@]13C (stereo partly specified) in this test
Result: inactive

Request: Hello, I am checking results. What call was entered for CCOC(=O)C1=C(C)N(c2ccccc2)C2=C(C(=O)N(c3ccccc3)C2c2ccccc2)C1c1ccccc1 (stereo unspecified) ?
Result: inactive

Request: How was Cc1cc(Cl)ccc1NC(=O)CC1SC(N)=NC1=O (stereo unspecified) classified in this test?
Result: inactive

Request: Hi, sorry to bother you, what did the test record for CC1(C)C(c2ccccc2)C12CCC1(C2=O)C(c2ccccc2)C1(C)C (stereo unspecified) ?
Result: inactive

Request: Hello, I am checking results. What call was entered for O=C1/C(=C/c2ccc(Br)cc2)CCC/C1=C\c1ccc(Br)cc1 ?
Result: inactive

Request: Dear all, I need the recorded test outcome for COc1ccccc1/C=C1\CCC(Cc2ccccc2)(CN(C)C)C1=O (stereo unspecified) , thank you.
Result: inactive

Request: Which outcome was assigned to ON=C1CCC(c2ccccc2)CC1 (stereo unspecified) in this test?
Result: inactive

Request: Just curious, what result did CC(CN(C)C)/C(=N\Nc1ccccc1)c1ccccc1 (stereo unspecified) get here?
Result: inactive

Request: Each molecule tested received a call. Report the one for CC[C@]1(O)C[C@H]2CN(CCc3c([nH]c4ccccc34)[C@@](C(=O)OC)(c3cc4c(cc3OC)N(C=O)[C@H]3[C@@](O)(C(=O)OC)[C@H](OC(C)=O)[C@]5(CC)C=CCN6CC[C@]43[C@@H]65)C2)C1 [VINCRISTINE SULFATE] .
Result: active

Request: Dear all, I need the recorded test outcome for Cc1ccc([N+]2=NC(c3ccc([N+](=O)[O-])cc3)=NN(c3ccccc3)C2)cc1 , thank you.
Result: inactive

Request: I would be grateful if you could indicate the recorded call for N=C(N)SCc1cn2ccccc2n1 .
Result: inactive

Request: Please let me know the test result on file for CCc1cccc(C)c1NC(=O)NS(=O)(=O)c1ccc(C)cc1 .
Result: inactive

Request: Tell me the assay call for COc1cc2cc(OC(C)=O)c3cc4c(cc3c2c(OC)c1OC)OCO4 please.
Result: inactive

Request: What call does the record list for CC(C)CC(=O)N1CCN(C(=O)CC(C)C)c2ccccc21 ?
Result: inactive

Request: In this assay, the call recorded for O=C1OC2(c3ccccc3Oc3ccccc32)c2ccccc21 was what?
Result: inactive

Request: State the result this test recorded for Clc1ccccc1C(n1cc(Br)cn1)n1cc(Br)cn1 .
Result: inactive

Request: Please let me know the test result on file for COC(=O)c1cc2c(nc1C)-c1ccccc1OS2(=O)=O .
Result: inactive

Request: Which result was noted for this molecule in the test: O=C(CCN1CCOCC1)/C(=C/c1ccccc1)c1ccccc1
Result: inactive

Request: How was CC(Sc1ccccc1)C(CO)(CO)[N+](=O)[O-] (stereo unspecified) classified in this test?
Result: inactive

Request: Outcome? CCC/C=C\C=C\C1(NS(=O)(=O)c2ccc(C)cc2)CCC(C(C)(C)C)CC1 (stereo unspecified)
Result: inactive

Request: # outcome recorded in this test, key = CN1CCC(=O)/C(=C/c2ccccc2)C1
Result: inactive

Request: Please let me know the test result on file for Cc1cc(C)nc(NS(=O)(=O)c2ccc(NC(=O)c3cccc4c(N)c5ccccc5nc34)cc2)n1 .
Result: inactive

Request: What is the recorded call for this molecule in the test? CC(C)C(=O)Nc1nc2[nH]cnc2c(=O)[nH]1
Result: inactive

Request: Called result for O=C(Nc1nc2ccc([N+](=O)[O-])cc2s1)C(=O)C(C(=O)c1ccncc1)C1OC(=O)c2ccccc21 (stereo unspecified)
Result: inactive

Request: Hey, what did the test say about CC1=C(C(=O)Nc2ccccc2C)C(c2ccc([N+](=O)[O-])cc2)C(C(=O)Nc2ccccc2C)=C(C)N1 ?
Result: inactive

Request: Each molecule tested received a call. Report the one for CCCCNCCCNCCCNC(=O)c1csc(-c2csc(CCNC(=O)C(NC(=O)C(C)C(O)C(C)NC(=O)C(NC(=O)c3nc(C(CC(N)=O)NCC(N)C(N)=O)nc(N)c3C)C(OC3OC(CO)C(O)C(O)C3OC3OC(CO)C(O)C(OC(N)=O)C3O)c3c[nH]cn3)C(C)O)n2)n1 (stereo unspecified) .
Result: inactive

Request: Dear colleague, could you share the recorded outcome for Cc1ccc(C2=C(c3ccccc3)C(O)(c3ccccc3)C(c3ccccc3)=C2c2ccc(C)cc2)cc1 when you have a moment?
Result: inactive

Request: Recorded call for CCOC(=O)C(=O)Nc1ccc(C)c(C)c1 ?
Result: inactive

Request: Query: recorded result category for COc1cc(C2c3cc4c(cc3[C@@H](Nc3ccc(N)cc3)C3COC(=O)[C@H]23)OCO4)cc(OC)c1O (stereo partly specified) in this test
Result: inactive

Request: # fetch the recorded call for NCCOc1ccc(/C(=C(/Cl)c2ccccc2)c2ccccc2)cc1 here
Result: inactive

----------
So I've got a bunch of compounds here, and I need their GI50 values.
System: A549
Experiment: NCI tumour cell line growth inhibition, 48 h
The source made the active and inactive calls. Rule as the data show it: active = GI50 up to about 1.1 µM and inactive = higher.

Value (GI50, A549) for record O=C1c2cccc(O)c2C(=O)c2c(O)cc(CO)cc21 = 40 µM (inactive)

Record CCCCCCc1cc2cc(C(=O)Nc3cccc(F)c3)c(=N)oc2cc1O ; system A549; GI50 = 3.27 µM (inactive)

Summary line: CC1(c2nc3cc(Cl)c(Cl)cc3[nH]2)CCC(C(=O)O)C(C)(C)O1 (centres undefined) , A549, reported GI50 = > 100 µM (inactive)

Cc1nc(Cl)c(C)c(Cl)n1 tested on A549 gave GI50: > 100 µM (inactive)

Assay A549, sample CC(=O)OC1CC[C@@]2(C)C(CC[C@]3(C)C2CC=C2[C@@H]4CC(C)(C)CCC4(C)CCC23C)[C@@]1(C)C(=O)O (some centres undefined) , GI50 read: 7.41 µM (inactive)

A549 data for CCC/C=C\C=C\C1(NS(=O)(=O)c2ccc(C)cc2)CCC(C(C)(C)C)CC1 (centres undefined) ; its GI50: 15.4 µM (inactive)

Lab note: compound CN(C)CCOC1(CC2CCCCC2)CCC(C(C)(C)C)CC1 (centres undefined) tested on A549; recorded GI50 was 5.56 µM (inactive)

Entry C=CCN1C(=O)/C(=C/c2ccc(C)cc2)N=C1SC1OC(COC(C)=O)C(OC(C)=O)C(OC(C)=O)C1OC(C)=O (centres undefined) ; assay system A549; GI50 recorded at > 100 µM (inactive)

Value (GI50, A549) for record COc1cc(OC)c(/C=C\c2cc(/C=C/c3c(OC)cc(OC)cc3OC)c3ccccc3[n+]2C)c(OC)c1 = 3.94 µM (inactive)

Readout GI50 for O=C1C=CC(=O)C2C1Cc1ccccc1C2c1ccccc1 (centres undefined) , test system A549, was 30.1 µM (inactive)

Lab note: compound COC(=O)c1cc2c(nc1C)-c1ccccc1OS2(=O)=O tested on A549; recorded GI50 was > 100 µM (inactive)

Bench note, A549: entry O=c1[nH]cnc(NC2C=C(CO)C(O)C2O)c1[N+](=O)[O-] (centres undefined) , its GI50 = > 83.2 µM (inactive)

Item CC(=O)c1c(-c2ccco2)c(C#N)c(=S)n(C2OC(CO)C(O)C(O)C2O)c1-c1ccccc1 (centres undefined) was tested on A549; the reported GI50 is > 100 µM (inactive)

Field GI50 (system: A549) for entry CC(=O)O[C@]1(C)OC(=O)[C@@H](C)N1[N+](=O)[O-] = > 100 µM (inactive)

Reported GI50 (A549) for entry OC(c1cc2ccccc2[nH]1)C(O)(c1cc2ccccc2[nH]1)c1cc2ccccc2[nH]1 (centres undefined) is 12.6 µM (inactive)

CC(=O)OCC1OC(OCc2ccccc2)C(Br)C(OC(C)=O)C1OC(C)=O (centres undefined) on A549 gives GI50 = > 100 µM (inactive)

Param item: O=C1c2cccc3c(Cl)ccc(c23)C(=O)N1CCCN1CCN(CCCN2C(=O)c3cccc4c(Cl)ccc(c34)C2=O)CC1 ; param system: A549; output GI50: > 100 µM (inactive)

The measured GI50 that COC(=O)c1ccc(CCC2=CC(=O)C=CC2=O)cc1 showed for A549 is 23.5 µM (inactive)

Tested on A549, the item O=[N+]([O-])C(=C(Nc1ccccc1)Nc1ccccc1)C(Cl)=C(Cl)Cl showed GI50 equal to 17.7 µM (inactive)

Record CCOC(=O)C1=C(C)N(CC(C)C)C2(O)C(OC)CC(=O)C3C(=O)N(c4ccccc4)C(=O)C132 (centres undefined) has A549 GI50 equal to 43.4 µM (inactive)

Let me check: CCOc1ccccc1N1C(=O)C(=O)C(c2nc3ccccc3o2)/C(=N\N)C1=O (centres undefined) , system A549, measured GI50 is > 100 µM (inactive)

Entry CC(C)c1ccc(/C=C2\CSCC3=C2N=C2SCC(=O)N2C3c2ccc(C(C)C)cc2)cc1 (centres undefined) , tested on A549, has a reported GI50 of > 100 µM (inactive)

Readout GI50 for CSC1=C(C#N)C(=S)N=C(N)C1C(=O)Nc1ccc(C)cc1 (centres undefined) , test system A549, was > 100 µM (inactive)

Entry CN(C)CCNc1nc2ccccc2c2c1CCCC2 : GI50 on A549 = 32.6 µM (inactive)
